Tested on: PPARg:RXRa 270nM:90nM, anti-RXR (NR concentration 270 nM, RXRa partner concentration 90 nM)
Assay: PBM binding z-score (relative to random genomic background probes); higher = stronger binding; sequences stand for … in GC…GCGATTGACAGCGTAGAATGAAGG
Everything with PBM binding z-score lower than 3 is No; everything else, including exactly 3, is Yes.

SEQUENCE_STRING: TCTCGTTGGTCACGGAGGTCACACACGACGGGTA
CLASSIFICATION: Yes

SEQUENCE_STRING: ATCGAAAGGTCGAAGAGGTGAGTATACACCGTTT
CLASSIFICATION: No

SEQUENCE_STRING: TCGAGTAGGTTACCAATGCGGCATTCAGCTTTCT
CLASSIFICATION: No

SEQUENCE_STRING: GCTATGAGTTGAAAGGGCAACCGAATGATTCTCG
CLASSIFICATION: Yes

SEQUENCE_STRING: TTACCAAGGTGAAGGGCGTTGATCCCTCTGTAGA
CLASSIFICATION: No

SEQUENCE_STRING: CCAAGCAGGCCAATCTGGGTCACTCAAGGCTTGA
CLASSIFICATION: No

SEQUENCE_STRING: GCTAGCAGGCCATTTGGGTCACTCTATGACGGGC
CLASSIFICATION: No

SEQUENCE_STRING: TGTCAAAGTTCAAAGGTAACTTAAGTATCCACAC
CLASSIFICATION: Yes

In: Is reported PBM binding z-score greater than or equal to 3 here: CGTCCAAGGTCAATGCTAGGTCATTGAAAGCATT
Out: Yes

In: Is reported PBM binding z-score greater than or equal to 3 here: CAAACTAGGTCACGAAAGGCCAAAGTCGAATGAC
Out: Yes

In: Is reported PBM binding z-score greater than or equal to 3 here: CCTACTGGGCCAAAAAGGACATTGATGCCGATAA
Out: No

In: Is reported PBM binding z-score greater than or equal to 3 here: GATACAGGGTCAAGGCCTGAGTACGCGTATTGAT
Out: Yes

In: Is reported PBM binding z-score greater than or equal to 3 here: CGTCCAGGGTCAAGGTCAGTGAAAGAGACTCGAA
Out: Yes

In: Is reported PBM binding z-score greater than or equal to 3 here: TCGAGTAGGTTACTAATGGGGCATTCAGCTTTCT
Out: No

In: Is reported PBM binding z-score greater than or equal to 3 here: ACAGACAGGTGACTGAAGGTAACTCAGCTGGACG
Out: No

====

System: RARb homodimer (NR concentration 270 nM)
Experiment: PBM binding z-score (relative to random genomic background probes); higher = stronger binding; sequences stand for … in GC…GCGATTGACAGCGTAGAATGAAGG
REPORTED_ENDPOINT: PBM binding z-score
Form rule: numeric answer, no unit written next to it.

Recorded PBM binding z-score, per entry:
SEQUENCE_STRING: TCATATAGGTAATACAGGTTAAAGTCGGCATCTA
PBM binding z-score: 0.936

SEQUENCE_STRING: TGGCAAAGTTCAAAGGTAACGTAAGTATCCACAC
PBM binding z-score: 4.03

SEQUENCE_STRING: TAACCTAGGTCAGATCGGGCCAGTATACGCTATA
PBM binding z-score: 2.52

SEQUENCE_STRING: ACTAGTTGGTCAGCTCAGGTCACACACAATTCGG
PBM binding z-score: 3.56

SEQUENCE_STRING: CCTGCTTGGTCAATGGTCAGCTAAAGCAGCTCGC
PBM binding z-score: 0.507

SEQUENCE_STRING: GGATCGAGGGCATTCGAGTTGATAGCATGGCGAT
PBM binding z-score: 0.818

SEQUENCE_STRING: CCTTACGGGTCAAGGTTATGGCACGGGTGGTACG
PBM binding z-score: 3.66

SEQUENCE_STRING: TCGCGTAGGTTACCAATGGGGCATTCAGCTTTCT
PBM binding z-score: 0.809

In: // PBM binding z-score lookup, key: CCTACTCGGCCATCAGGTCATTGATATCAACGTT
Out: 3.21

In: // PBM binding z-score lookup, key: ATCGAAAGGTGGAGGTGAGTATAGAGAAAGGGAA
Out: 1.16

In: // PBM binding z-score lookup, key: AGTCAAACTTCACTAGGTAACGTAAGATTCAGCT
Out: -0.374

In: // PBM binding z-score lookup, key: CCTAGTTGGTCAAGGTGACACACGCTATAGGTAC
Out: 1.8

In: // PBM binding z-score lookup, key: TAGCCTAGGTCATTGGCCAGTATACCACGCGAAC
Out: 2.76

In: // PBM binding z-score lookup, key: ATCGAAAGGTCGTGAGGTGAATATACAGAAAGGC
Out: 3.06

In: // PBM binding z-score lookup, key: CGAACTAGGTCATTGAGAGGACAGTGAATAGTAA
Out: 3.22

In: // PBM binding z-score lookup, key: AGTCAAAATTCATCTAGGTAACGTAAGATATGCT
Out: -0.349

In: // PBM binding z-score lookup, key: TCTTGTAGATCAACAGGACGTTAAGAAAGATCGA
Out: -0.694

In: // PBM binding z-score lookup, key: CCTACTGGGCCATCAGGTTATTGATATCAACGTT
Out: 0.464

In: // PBM binding z-score lookup, key: GGACCGAGGGCAAGTTGATAGCAGAGTTTGATGG
Out: 1.43

In: // PBM binding z-score lookup, key: CGAACTAGGGCAGAACAGGACAGTGAAGGATGAT
Out: 0.707

In: // PBM binding z-score lookup, key: CATACTGGGCCATTCAGAGGTCATTGATCATATG
Out: 4.15

====

System: PPARg DBDmut:RXRa IVT, anti-PPARg (DBD mutation: PPARg1 K132A/R137A, NR concentration 270 nM, RXRa partner concentration 90 nM)
Test: PBM binding z-score (relative to random genomic background probes); higher = stronger binding; sequences stand for … in GC…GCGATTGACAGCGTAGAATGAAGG
REPORTED_ENDPOINT: PBM binding z-score
Form rule: numeric answer, no unit written next to it.

Recorded PBM binding z-score, per entry:
SEQUENCE_STRING: ATCGAAAGGTCGACGGTGAGTATACCCACCCGAA
PBM binding z-score: 0.9
//
SEQUENCE_STRING: CGAGACAGGTGAAAGGTAACTCAGTCTGGTACGC
PBM binding z-score: 0.301

In: // PBM binding z-score lookup, key: TCTGCTAAGTCAGTTGGTCAGCTAACGAGCTGCC
Out: -0.684

In: // PBM binding z-score lookup, key: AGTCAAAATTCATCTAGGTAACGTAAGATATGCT
Out: 1.05

In: // PBM binding z-score lookup, key: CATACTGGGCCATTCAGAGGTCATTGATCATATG
Out: 1.19

In: // PBM binding z-score lookup, key: TTACCAAGGTGTGCTGAGGTCGTTGATCCAACTC
Out: -0.549

In: // PBM binding z-score lookup, key: ATCTCTTGGTAACAAGTTCAGTGAAAGAGAGGAC
Out: 0.927

====

Test system: RARb homodimer (NR concentration 270 nM)
Assay: PBM binding z-score (relative to random genomic background probes); higher = stronger binding; sequences stand for … in GC…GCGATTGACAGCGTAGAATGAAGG
Everything with PBM binding z-score lower than 0.9 is 0; everything else, including exactly 0.9, is 1.

SEQUENCE_STRING: CGTCCAAGCTCAATGCTAGGTCAGTGAAAGCATT
CLASSIFICATION: 1

In: Is reported PBM binding z-score greater than or equal to 0.9 here: CGTAGCAGGCCAGGGTCACTCAAGCATTTCGCTT
Out: 1

In: Is reported PBM binding z-score greater than or equal to 0.9 here: AGAATGAGGTTACCAAAGAGCAGGGAAACGCTTG
Out: 0

In: Is reported PBM binding z-score greater than or equal to 0.9 here: GTACCAAGGAGAATAGGTCGTTGATGAGTAGGCG
Out: 0

In: Is reported PBM binding z-score greater than or equal to 0.9 here: TCTGCTAGGCCAGTTGGTCAGCTAACGAGCTGCC
Out: 0

====

Tested on: PXR homodimer (NR concentration 270 nM)
Assay: PBM binding z-score (relative to random genomic background probes); higher = stronger binding; sequences stand for … in GC…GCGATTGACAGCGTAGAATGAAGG
Everything with PBM binding z-score lower than 0.3 is class 0; everything else, including exactly 0.3, is class 1.

Look over these answered cases.
SEQUENCE_STRING: CCTATTAGTTGCCCATAAGGGCAACCGAAGCTCG
SYSTEM_TESTED: PXR homodimer (NR concentration 270 nM)
CLASSIFICATION: class 1
//
SEQUENCE_STRING: CGTCCAAGGTCAGAGTGGTCAGTGAATGCCGAGT
SYSTEM_TESTED: PXR homodimer (NR concentration 270 nM)
CLASSIFICATION: class 1
//
SEQUENCE_STRING: TCATATAGGTTAACAGGTGAAAGTCCGTAAGTTA
SYSTEM_TESTED: PXR homodimer (NR concentration 270 nM)
CLASSIFICATION: class 1
//
SEQUENCE_STRING: CGAACTAGGTCATTGACAGGACAGTGCATAGTAA
SYSTEM_TESTED: PXR homodimer (NR concentration 270 nM)
CLASSIFICATION: class 1
//
SEQUENCE_STRING: AGAACGAGGGCAATGAGTTGATCGCACGGGTGGC
SYSTEM_TESTED: PXR homodimer (NR concentration 270 nM)
CLASSIFICATION: class 1

In: Is reported PBM binding z-score greater than or equal to 0.3 here: CCTTCCGGGTCAAGGTTATAGCACGGGTGGTACG
Out: class 1

In: Is reported PBM binding z-score greater than or equal to 0.3 here: ATTATTAGTTGAGACGAGGGCAACCGATAGGTTG
Out: class 1

In: Is reported PBM binding z-score greater than or equal to 0.3 here: CCTTACGGGTCACTGACTGGTTATAGCATTTGGA
Out: class 0

In: Is reported PBM binding z-score greater than or equal to 0.3 here: CTTACTGGGCCAAAAAGGTCATTGATGCCGATAA
Out: class 1

In: Is reported PBM binding z-score greater than or equal to 0.3 here: TCTAGCGGGCCAGAGGGTCACTCAAGAGGTACGG
Out: class 0

In: Is reported PBM binding z-score greater than or equal to 0.3 here: TCTGCTAGGTCAGTTGGTCAACTAACGAGCTGCC
Out: class 0

In: Is reported PBM binding z-score greater than or equal to 0.3 here: GGAACGAGGGCAAACTTGATAGCATCTGTCGACG
Out: class 0

In: Is reported PBM binding z-score greater than or equal to 0.3 here: CTACCAAGTTGAACAAGGTCGTTGATTACTATTC
Out: class 1

In: Is reported PBM binding z-score greater than or equal to 0.3 here: AGTCAAAGTTCAGGCCGAGGTAACGTAAAGCACG
Out: class 1
